Consider the following substances and their measured logFC.mEQ.over.Luc readings.
tested-system: mouse ADAMTS7 (Mus musculus, UniProt Q68SA9, E373Q)
Construct: Full-length mouse Adamts7 1-1857 (Uniprot Q68SA9, WT or E373Q catalytic mutant); expressed in transfected cells; host or cells: Human Coronary Artery Smooth Muscle Cells (HCA-SMC, Lonza), adenovirus 50 MOI
Sequence (Q68SA9 221-1657 E373Q): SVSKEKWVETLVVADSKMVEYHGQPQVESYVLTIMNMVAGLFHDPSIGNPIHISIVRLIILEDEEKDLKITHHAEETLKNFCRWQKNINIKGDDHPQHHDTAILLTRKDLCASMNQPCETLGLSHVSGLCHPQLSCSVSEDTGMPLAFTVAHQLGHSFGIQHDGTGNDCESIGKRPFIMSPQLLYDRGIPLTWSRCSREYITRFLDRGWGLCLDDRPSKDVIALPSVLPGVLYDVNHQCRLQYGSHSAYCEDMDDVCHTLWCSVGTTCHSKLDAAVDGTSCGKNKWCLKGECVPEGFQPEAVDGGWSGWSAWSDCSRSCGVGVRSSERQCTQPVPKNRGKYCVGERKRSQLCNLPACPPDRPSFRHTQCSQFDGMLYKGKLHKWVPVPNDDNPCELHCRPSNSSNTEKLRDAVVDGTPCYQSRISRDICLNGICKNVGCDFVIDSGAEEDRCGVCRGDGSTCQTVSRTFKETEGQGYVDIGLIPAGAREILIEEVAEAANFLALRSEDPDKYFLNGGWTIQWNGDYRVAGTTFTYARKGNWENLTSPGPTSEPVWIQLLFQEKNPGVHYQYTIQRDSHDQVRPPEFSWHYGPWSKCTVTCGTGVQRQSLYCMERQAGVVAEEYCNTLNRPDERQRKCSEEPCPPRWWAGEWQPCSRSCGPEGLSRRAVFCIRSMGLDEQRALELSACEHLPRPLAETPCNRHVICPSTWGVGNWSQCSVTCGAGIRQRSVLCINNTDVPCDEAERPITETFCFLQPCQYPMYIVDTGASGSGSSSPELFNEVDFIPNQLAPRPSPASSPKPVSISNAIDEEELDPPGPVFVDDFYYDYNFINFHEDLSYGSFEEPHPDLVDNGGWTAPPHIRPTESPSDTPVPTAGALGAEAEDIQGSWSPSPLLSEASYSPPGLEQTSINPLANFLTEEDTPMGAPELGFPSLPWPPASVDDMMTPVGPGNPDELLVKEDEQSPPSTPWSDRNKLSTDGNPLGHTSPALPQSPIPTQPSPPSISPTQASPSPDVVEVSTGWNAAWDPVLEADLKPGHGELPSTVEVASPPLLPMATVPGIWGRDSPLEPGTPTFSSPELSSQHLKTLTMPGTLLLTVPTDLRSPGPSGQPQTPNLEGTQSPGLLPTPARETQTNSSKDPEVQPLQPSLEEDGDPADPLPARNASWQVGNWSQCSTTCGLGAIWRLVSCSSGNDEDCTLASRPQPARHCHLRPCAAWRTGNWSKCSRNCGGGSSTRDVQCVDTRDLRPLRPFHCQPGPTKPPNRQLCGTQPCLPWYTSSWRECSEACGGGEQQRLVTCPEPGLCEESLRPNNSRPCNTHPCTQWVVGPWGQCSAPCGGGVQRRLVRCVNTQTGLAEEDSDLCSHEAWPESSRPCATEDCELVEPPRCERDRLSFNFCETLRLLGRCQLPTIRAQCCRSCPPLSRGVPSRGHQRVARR
procedure-text: TMT10 TAILS N-terminomics, SMC1 experiment (Ad-mADAMTS7 WT vs EQ vs Luc, technical replicates, trypsin digest)
Assay type: cell-based
assay-context: TAILS neo-N-terminal peptide abundance; log fold change, Ad-mADAMTS7 EQ over Luc

EFEMP1_124 (AVAGPEMQTGR; listed as Homo sapiens)	−0.59
CDH11_467 (HQEAKVPVAIR; listed as Homo sapiens)	−0.03
PDLIM4_104 (IDPEIQDGSPTTSR; listed as Homo sapiens)	−0.13
LTBP2_1023 (GKCTNLEGSFR; listed as Homo sapiens)	0.03
FBLN2_260 (LGPPAPVQAKAR; listed as Homo sapiens)	−0.74

Q. // returns reported logFC.mEQ.over.Luc for input LTBP2_677 (SLGPGTCTLPLAQR; listed as Homo sapiens)
A. 0.05

Q. // returns reported logFC.mEQ.over.Luc for input HTRA1_33 (LAAGCPDR; listed as Homo sapiens)
A. 0.09

###

tested-system: mouse ADAMTS7 (Mus musculus)
Construct: Full-length mouse Adamts7 1-1857 (Uniprot Q68SA9, WT or E373Q catalytic mutant); expressed in transfected cells; host or cells: Human Coronary Artery Smooth Muscle Cells (HCA-SMC, Lonza), adenovirus 50 MOI
Sequence (Q68SA9 221-1657): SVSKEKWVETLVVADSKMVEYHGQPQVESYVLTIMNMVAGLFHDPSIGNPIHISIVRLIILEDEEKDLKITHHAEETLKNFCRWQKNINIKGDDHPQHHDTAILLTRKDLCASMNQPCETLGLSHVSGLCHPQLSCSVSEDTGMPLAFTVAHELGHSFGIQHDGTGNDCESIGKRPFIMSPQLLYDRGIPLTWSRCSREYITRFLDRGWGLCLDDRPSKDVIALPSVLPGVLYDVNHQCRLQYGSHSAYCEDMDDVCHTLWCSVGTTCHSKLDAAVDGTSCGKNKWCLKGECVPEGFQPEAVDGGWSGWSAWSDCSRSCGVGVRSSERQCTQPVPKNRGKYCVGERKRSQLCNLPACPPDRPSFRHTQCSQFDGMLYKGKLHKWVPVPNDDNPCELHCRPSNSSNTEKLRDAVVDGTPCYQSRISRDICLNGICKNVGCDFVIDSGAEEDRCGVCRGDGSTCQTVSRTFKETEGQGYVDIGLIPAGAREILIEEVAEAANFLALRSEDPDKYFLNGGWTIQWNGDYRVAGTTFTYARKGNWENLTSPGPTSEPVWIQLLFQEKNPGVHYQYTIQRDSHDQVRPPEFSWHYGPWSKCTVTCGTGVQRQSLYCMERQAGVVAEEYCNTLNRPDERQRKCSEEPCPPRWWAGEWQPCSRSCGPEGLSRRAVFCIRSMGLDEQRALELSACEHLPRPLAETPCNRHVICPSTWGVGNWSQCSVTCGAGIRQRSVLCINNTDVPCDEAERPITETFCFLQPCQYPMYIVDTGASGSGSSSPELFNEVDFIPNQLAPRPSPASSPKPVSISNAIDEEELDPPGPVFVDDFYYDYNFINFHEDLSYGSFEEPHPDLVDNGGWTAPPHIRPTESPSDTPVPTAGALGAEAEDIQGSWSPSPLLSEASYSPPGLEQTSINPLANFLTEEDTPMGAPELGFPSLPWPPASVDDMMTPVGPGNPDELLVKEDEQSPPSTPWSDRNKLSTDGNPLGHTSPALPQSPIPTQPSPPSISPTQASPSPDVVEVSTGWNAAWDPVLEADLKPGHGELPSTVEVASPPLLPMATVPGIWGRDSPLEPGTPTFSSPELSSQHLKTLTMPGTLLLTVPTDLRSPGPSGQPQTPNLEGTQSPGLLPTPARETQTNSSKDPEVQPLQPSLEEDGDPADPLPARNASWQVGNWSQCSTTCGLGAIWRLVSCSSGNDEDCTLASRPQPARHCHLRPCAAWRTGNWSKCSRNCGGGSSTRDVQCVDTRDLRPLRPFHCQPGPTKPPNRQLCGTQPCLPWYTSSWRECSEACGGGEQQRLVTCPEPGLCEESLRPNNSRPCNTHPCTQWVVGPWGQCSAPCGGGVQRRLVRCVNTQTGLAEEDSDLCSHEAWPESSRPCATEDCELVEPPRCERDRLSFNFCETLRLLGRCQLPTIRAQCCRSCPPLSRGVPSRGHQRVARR
procedure-text: TMT10 TAILS N-terminomics, SMC1 experiment (Ad-mADAMTS7 WT vs EQ vs Luc, technical replicates, trypsin digest)
Format: cell-based
assay-context: TAILS neo-N-terminal peptide abundance; log fold change, Ad-mADAMTS7 WT over Luc
Square brackets hold non-standard residues; d marks the D form. Ends that are not written are not given here.
Consider the following substances and their measured logFC.mWT.over.Lux readings.

In the examples that follow, each entry is paired with its recorded logFC.mWT.over.Lux.
FN1_282 (GSGPFTDVR; listed as Homo sapiens)	3.74
MAP4_815 (AVASTGPSSR; listed as Homo sapiens)	1.29
HSPG2_4075 (GCVGEVSVNGKR; listed as Homo sapiens)	0.77
FBN1_53 (LKGPNVCGSR; listed as Homo sapiens)	4.89

Q. // returns reported logFC.mWT.over.Lux for input COL4A2_172 (YALPKEER; listed as Homo sapiens)
A. 5.97

Q. // returns reported logFC.mWT.over.Lux for input OS9_54 ([code q]SQSSDVVIVSSKYKQR; also: modified N-terminal Gln; listed as Homo sapiens)
A. 2.67

Q. // returns reported logFC.mWT.over.Lux for input MAP4_816 (VASTGPSSR; listed as Homo sapiens)
A. 1.44

Q. // returns reported logFC.mWT.over.Lux for input IGFBP3_200 (FSSESKR; listed as Homo sapiens)
A. 2.33

Q. // returns reported logFC.mWT.over.Lux for input COL18A1_1505 (LQPPVVQLHDSNPYPR; listed as Homo sapiens)
A. 1.41

Q. // returns reported logFC.mWT.over.Lux for input OS9_55 (SQSSDVVIVSSKYKQR; listed as Homo sapiens)
A. 2.23

Q. // returns reported logFC.mWT.over.Lux for input PPP1R18_295 (LSETLTR; listed as Homo sapiens)
A. 3.60

Q. // returns reported logFC.mWT.over.Lux for input NID2_951 (YAYPGAR; listed as Homo sapiens)
A. 3.35

Q. // returns reported logFC.mWT.over.Lux for input GSN_413 (HIANVER; listed as Homo sapiens)
A. 1.99

Q. // returns reported logFC.mWT.over.Lux for input COL1A2_270 (VGNAGPAGPAGPR; listed as Homo sapiens)
A. 3.51

Q. // returns reported logFC.mWT.over.Lux for input COL4A2_71 (YNGPPGLQGFPGLQGR; listed as Homo sapiens)
A. 1.77

Q. // returns reported logFC.mWT.over.Lux for input NUCB1_317 (FLASTQR; listed as Homo sapiens)
A. 4.76

Q. // returns reported logFC.mWT.over.Lux for input APLP2_579 (ISETPVDVR; listed as Homo sapiens)
A. 2.27

Q. // returns reported logFC.mWT.over.Lux for input EFEMP1_125 (VAGPEMQTGR; listed as Homo sapiens)
A. 1.92

Q. // returns reported logFC.mWT.over.Lux for input LGALS1_53 (HGDANTIVCNSKDGGAWGTEQR; listed as Homo sapiens)
A. 4.83

Q. // returns reported logFC.mWT.over.Lux for input FN1_45 (VSQSKPGCYDNGKHYQINQQWER; listed as Homo sapiens)
A. 3.70

Q. // returns reported logFC.mWT.over.Lux for input FN1_1731 (FTDVDVDSIKIAWESPQGQVSR; listed as Homo sapiens)
A. 2.59

Reference source: patent US20240368668A1
